# experiment.description: log P by HPLC on reversed-phase column (C 18), EEC Directive 79/831 Annex V.A8
# Type: physicochemical
# experimental.setup: reversed-phase C18 HPLC column; HPLC-MS, reversed-phase C 18, 55° C.; acidic or neutral range not stated
Output 1 for chromatographic logP not less than 4; output -1 otherwise.

# check: chromatographic logP of CCSc1ccc(Cl)nc1-c1nc2cc(C(F)(F)F)nc(C)c2n1C [Example 3] is greater than or equal to 4
-1

***
# check: chromatographic logP of CCSc1ccc(Br)nc1-c1nc2cc(C(F)(F)F)nc(Cl)c2n1C [Example 7] is greater than or equal to 4
1

# check: chromatographic logP of CCSc1ccc(Cl)nc1-c1nc2cc(C(F)(F)F)nc(I)c2n1C [Example 1] is greater than or equal to 4
1

###

# experiment.description: log P by HPLC on reversed-phase column (C 18), EEC Directive 79/831 Annex V.A8
# Type: physicochemical
# experimental.setup: reversed-phase C18 HPLC column; HPLC-MS, reversed-phase C 18, 55° C.; acidic or neutral range not stated
measured.endpoint: chromatographic logP
// response body must contain only the number

The measured chromatographic logP associated with CCSc1ccc(Br)nc1-c1nc2cc(C(F)(F)F)nc(I)c2n1C [Example 2] reads 4.34

The measured chromatographic logP associated with CCSc1ccc(Br)nc1-c1nc2cc(C(F)(F)F)nc(C#N)c2n1C [Example 6] reads 3.87

The measured chromatographic logP associated with CCSc1ccc(Cl)nc1-c1nc2cc(C(F)(F)F)nc(C#N)c2n1C [Example 5] reads 3.84

# evaluate next
The measured chromatographic logP associated with CCSc1ccc(Br)nc1-c1nc2cc(C(F)(F)F)nc(C)c2n1C [Example 4] reads 3.36

These measurements were taken from patent US11072609B2.
